This collection of values is drawn from patent US8648201B2.

The following compounds are shown together with reported pIC50 values.
target: PDK1 (Homo sapiens, UniProt O15530); construct: endogenous in cells; host or cells: commercially available colon carcinoma, ovary, prostate or breast cell lines (none named); test: IC50 PDK1 (cell); type: cell-based
Sequence (O15530 whole entry): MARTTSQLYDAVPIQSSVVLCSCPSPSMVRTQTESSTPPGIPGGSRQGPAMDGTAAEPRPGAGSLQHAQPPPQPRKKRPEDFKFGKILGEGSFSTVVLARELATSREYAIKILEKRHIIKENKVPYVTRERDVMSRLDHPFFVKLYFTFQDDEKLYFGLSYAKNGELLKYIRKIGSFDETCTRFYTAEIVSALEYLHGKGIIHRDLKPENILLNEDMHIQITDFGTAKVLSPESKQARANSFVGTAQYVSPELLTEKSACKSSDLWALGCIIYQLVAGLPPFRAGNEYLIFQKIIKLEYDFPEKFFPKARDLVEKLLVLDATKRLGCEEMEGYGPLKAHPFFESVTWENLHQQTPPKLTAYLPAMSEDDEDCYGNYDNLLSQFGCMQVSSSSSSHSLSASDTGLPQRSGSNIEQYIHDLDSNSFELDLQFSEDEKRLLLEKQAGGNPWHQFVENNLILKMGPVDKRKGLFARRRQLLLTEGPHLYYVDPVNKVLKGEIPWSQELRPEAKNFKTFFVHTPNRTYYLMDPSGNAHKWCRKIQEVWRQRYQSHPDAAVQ
pIC50: −log10 of the molar value.

Below are worked cases with known answers.
* COc1ccc2nc(-c3cc(-c4cnn(C5CCNCC5)c4)cnc3N)[nH]c2c1 [Compound A92] | < 5.00
* COc1ccc2nc(-c3cc(-c4ccc(C(=O)NC5CCN(C)CC5)s4)cnc3N)[nH]c2c1 [Compound A133] | < 5.00
* COc1ccc2nc(-c3cc(-c4cnn(C)c4)cnc3N)[nH]c2c1 [Compound A43] | < 5.00
* CC1CC(=O)NN=C1c1ccc2[nH]c(-c3cc(-c4cnn(C5CCN(C)CC5)c4)cnc3N)nc2c1 (stereo not shown) [Compound A16] | < 5.00
* CC1CC(=O)NN=C1c1ccc2[nH]c(-c3cc(-c4cnn(CCN(C)C)c4)cnc3N)nc2c1 (stereo not shown) [Compound A15] | < 5.00
* Cn1cc(-c2cnc(N)c(-c3nc4cccc(CO)c4[nH]3)c2)cn1 [Compound A52] | 5.00 to 7.00

What value of pIC50 has been recorded for this entry: CC1CC(=O)NN=C1c1ccc2nc(-c3cc(-c4cnn(C)c4)cnc3N)[nH]c2c1 (racemic) [Compound A1]
5.00 to 7.00

Same question, Cn1cc(-c2cnc(N)c(-c3nc4ccc(C(O)c5ccccc5)cc4[nH]3)c2)cn1 (stereo not shown) [Compound A80] this time
< 5.00

Same question, COc1ccc2nc(-c3cc(-c4cnn(C5CCN(C)CC5)c4)cnc3N)[nH]c2c1 [Compound A106] this time
< 5.00

Same question, CC1CC(=O)NN=C1c1ccc2nc(-c3cc(-c4cnn(CCO)c4)cnc3N)[nH]c2c1 (stereo not shown) [Compound A29] this time
< 5.00

Same question, CC(C)(C)c1ccc2nc(-c3cc(-c4cnn(C5CCNCC5)c4)cnc3N)[nH]c2c1 [Compound A53] this time
5.00 to 7.00

Same question, Nc1ncc(-c2cnn(C3CCNCC3)c2)cc1-c1nc2cc(OC(F)(F)F)ccc2[nH]1 [Compound A67] this time
5.00 to 7.00

Same question, CN(C)c1ccc2nc(-c3cc(-c4cnn(C)c4)cnc3N)[nH]c2c1 [Compound A68] this time
< 5.00

###

The following compounds are shown together with reported IC50 values.
molecular target: PDK1 (Homo sapiens, UniProt O15530); construct: endogenous in cells; host or cells: commercially available colon carcinoma, ovary, prostate or breast cell lines (none named); experiment: IC50 PDK1 (cell); assay type: cell-based

Below are worked cases with known answers.
• Cn1cc(-c2cnc(N)c(-c3nc4c(O)cccc4[nH]3)c2)cn1 [Compound A102] = 0.1 to 10 µM
• Cn1cc(-c2cnc(N)c(-c3nc4ccc(C(=O)NCCc5ccc(F)c(F)c5)cc4[nH]3)c2)cn1 [Compound A128] = > 10 µM

What value of IC50 has been recorded for this entry: COc1ccc2nc(-c3cc(-c4ccsc4)cnc3N)[nH]c2c1 [Compound A144]
> 10 µM
